test: A Quantitative High throughput Screen to Identify Chemical Modulators of PINK1 Expression; settings: PINK1 immunofluorescence, high-content cytometry, 24 h; series mostly up to 76.6 µM; note: nearly all actives have a fitted effect of over 65% in size
About 820 (0.2%) of roughly 410,000 compounds were called active. Another 2% or so got no clear call; they are omitted. Calls come from the whole dose curve; as a rule, active = well fitted activation curve with a large enough effect; inconclusive = small, poorly fitted or top-dose-only effect; inactive = flat fitted curve, though single readings scatter; cell line not stated here. Many of the other results were omitted from the sample, so actives are more common in it than they were.
Lab note: assign the record to one of t for active, f for inactive

These solved cases illustrate the format of a correct answer.
Structure String | Label
C=CCSc1nsc(NC(=O)Nc2cccc(C(C)=O)c2)n1 | t
CN(C(=O)CSc1nnc(NC(=O)Nc2ccccc2)s1)c1ccccc1 | f
Cc1ccc(C(=O)Nc2nc(-c3ccccc3)ns2)cc1 | f
O=C(CCCn1c(SCC(=O)c2ccc(F)cc2)nc2ccccc2c1=O)NCc1ccco1 | t
O=C(CSc1nc2ccccc2c(=O)n1CCCO)NC1CC1 | f

Then there is this compound:
query: // return assay outcome for O=C(CSc1nc2cc3c(cc2c(=O)n1CCC1=CCCCC1)OCO3)NCc1ccco1
result: f

====

test: A Quantitative High throughput Screen to Identify Chemical Modulators of PINK1 Expression; conditions: PINK1 immunofluorescence, high-content cytometry, 24 h; series mostly up to 76.6 µM; note: nearly all actives have a fitted effect of over 65% in size
Out of some 410,000 compounds screened, about 820 (0.2%) were called active. Roughly 2% stayed inconclusive and do not appear here. Calls come from the whole dose curve; as a rule, active = well fitted activation curve with a large enough effect; inconclusive = small, poorly fitted or top-dose-only effect; inactive = flat fitted curve, though single readings scatter; cell line not stated here. This is one part of a sample in which actives are shown more often than they occur.
Lab note: assign the record to one of active, inactive

These solved cases illustrate the format of a correct answer.
Compound | Label
Cc1ccc(-c2ccc(C(=O)N3CCc4nnc(CNC(=O)c5ccccc5)n4CC3)cc2)cc1 | inactive
CO[C@H]1[C@H](NC(=O)C(C)C)c2ccccc2C12CCN(Cc1cnc(N(C)C)s1)CC2 | inactive
C=CCn1c(C)cc(C2=NNC(=NCC)SC2)c1C | inactive
O=C(Nc1ncc([N+](=O)[O-])s1)C1COc2ccccc2O1 (stereo unspecified) | active
CCOc1ccc(S(=O)(=O)N2CCN(C(=S)NCC3CCCO3)CC2)cc1 (stereo unspecified) | inactive

query: // return assay outcome for CCC1(C2CCN(Cc3cccnc3)CC2)NC(=O)N(CC2COc3ccccc3O2)C1=O (stereo unspecified)
result: inactive

query: // return assay outcome for COCCN1CCN(C(=O)c2sc3ncnc(NCC4CCCO4)c3c2C)CC1 (stereo unspecified)
result: inactive

====

test: A Quantitative High throughput Screen to Identify Chemical Modulators of PINK1 Expression; settings: PINK1 immunofluorescence, high-content cytometry, 24 h; series mostly up to 76.6 µM; note: nearly all actives have a fitted effect of over 65% in size
About 820 (0.2%) of roughly 410,000 compounds were called active. Another 2% or so got no clear call; they are omitted. The call rests on the fitted dose curve; in most records, active means well fitted activation curve with a large enough effect; inconclusive means small, poorly fitted or top-dose-only effect; inactive means flat fitted curve, though single readings scatter; cell line not stated here. For the sample, actives were picked, then their nearest neighbours and some compounds at random.
Lab note: assign the record to one of active, inactive

query: // return assay outcome for O=C(CNS(=O)(=O)c1cccc(C(F)(F)F)c1)Nc1ccccc1F
result: active

query: // return assay outcome for C(=Nc1ccc(/C=C/c2ccnc3ccccc23)cc1)Nc1ccc(/C=C/c2ccnc3ccccc23)cc1
result: inactive

query: // return assay outcome for COc1cccc(C(=O)Nc2ccc3oc(-c4ccc5ccccc5c4)nc3c2)c1
result: inactive

====

Assay: A Quantitative High throughput Screen to Identify Chemical Modulators of PINK1 Expression; note: nearly all actives have a fitted effect of over 65% in size
Settings: PINK1 immunofluorescence, high-content cytometry, 24 h; series mostly up to 76.6 µM
Text: The overall goal of this project is to develop new tools for understanding and treating the mitochondrial basis for neurodegenerative disease such as Parkinson's disease (PD). The PINK1 campaign was developed from recent data pointing towards mitochondrial dysfunction as a major contributor to dopaminergic neuron loss. […] 19 Read plates on Acumen EX3 and determine Wells2Cells coordinates
In all, about 410,000 compounds went through this assay and about 820 (0.2%) were called active. Not shown: some 2% with an inconclusive outcome. The call rests on the fitted dose curve; in most records, active means well fitted activation curve with a large enough effect; inconclusive means small, poorly fitted or top-dose-only effect; inactive means flat fitted curve, though single readings scatter; cell line not stated here. The full list was thinned out, with actives kept by preference.
Lab note: assign the record to one of TRUE = active, FALSE = inactive

These solved cases illustrate the format of a correct answer.
Compound | Label
O=C1CCN(Cc2ccc(-c3ccccc3)cc2)CCN1Cc1ccccn1 | FALSE
COc1ccc2[nH]cc(CCNc3ncnc4ccc(-c5ccc(C(=O)N(C)C)cc5)cc34)c2c1 | FALSE
Cc1cnc(C(=O)N2CCOc3ccc(CN4CCCC(C(=O)c5cccnc5)C4)cc3C2)[nH]1 (stereo unspecified) | FALSE
COc1ccccc1CNc1cc(-c2ccccc2CN(C)C)ncn1 | FALSE
CCOc1ccc2c(c1)cc(CN(C(=O)CC)C1CCCCC1)c1nnnn12 | FALSE
COc1cc2nc(N3CCCN(C)CC3)nc(NC(C)C)c2cc1OC | FALSE

query: // return assay outcome for O=[N+]([O-])c1ccc(O)c(/C=N/Nc2ccccc2[N+](=O)[O-])c1
result: TRUE

query: // return assay outcome for O=S(=O)(NCCCN1CCOCC1)c1ccc(F)c(Cl)c1
result: FALSE

query: // return assay outcome for O=C1NC(CC(=O)N2CCC(n3c(C4CCC4)nc4cccnc43)CC2)c2ccccc21 (stereo unspecified)
result: FALSE

query: // return assay outcome for COc1cc(=O)n2c(c1C(=O)NC(C)c1ccco1)CCN(Cc1cc(C)cc(C)c1)CC2 (stereo unspecified)
result: FALSE

query: // return assay outcome for O=c1c2ccccc2nc2n1C1(CCCCC1)Cc1ccccc1-2
result: TRUE

query: // return assay outcome for CCCCn1c(SCC(=O)NCCc2ccc(OC)c(OC)c2)nc2c1c(=O)n(C)c(=O)n2C
result: TRUE

query: // return assay outcome for Cc1cnc(-n2ncc(C(=O)N3CCN(C(C)C)CC3)c2-c2ccco2)nc1-c1ccc(F)cc1
result: FALSE

query: // return assay outcome for CCCCN(C)c1nnc(NC(=O)Nc2ccc(Br)c(C)c2)s1
result: FALSE

query: // return assay outcome for COc1ccccc1CNc1ncncc1-c1cccnc1
result: FALSE

query: // return assay outcome for N#Cc1cccc(-c2ccc3ncnc(NCc4cccs4)c3c2)c1
result: FALSE

query: // return assay outcome for Cc1nc2cnc(N3CCNCC3)nc2n(Cc2ccc(F)cc2)c1=O
result: FALSE

query: // return assay outcome for CN(C)c1ccc(CN2CCOc3ccc(CN4CCC(O)(c5cccnc5)CC4)cc3C2)cc1
result: FALSE

query: // return assay outcome for Cc1c(C(=O)NCC2CCCN(C)C2)cnn1-c1nccc(-c2ccco2)n1 (stereo unspecified)
result: FALSE

query: // return assay outcome for Cc1ccc2c(C)nc(N3CCCC(C(=O)NC(C)(C)CO)C3)nc2c1 (stereo unspecified)
result: FALSE

query: // return assay outcome for COc1ccc(CCNc2ncnc3sc(C(=O)N4CCCC4)c(C)c23)cc1OC
result: FALSE

query: // return assay outcome for COc1ccc(-n2c(CNC(=O)c3cc(C(F)(F)F)ccc3Cl)nnc2SC)cc1
result: FALSE

query: // return assay outcome for CC(C)c1cc(C(=O)N2CCOc3ccc(CN4CCC(Oc5cccnc5)CC4)cc3C2)n[nH]1
result: FALSE

query: // return assay outcome for COc1cc(=O)n2c(c1C(=O)NCc1ccco1)CCN(Cc1ccccc1)CC2
result: FALSE

====

test: A Quantitative High throughput Screen to Identify Chemical Modulators of PINK1 Expression; conditions: PINK1 immunofluorescence, high-content cytometry, 24 h; series mostly up to 76.6 µM; note: nearly all actives have a fitted effect of over 65% in size
Out of some 410,000 compounds screened, about 820 (0.2%) were called active. About 2% were inconclusive and are not listed. The call rests on the fitted dose curve; in most records, active means well fitted activation curve with a large enough effect; inconclusive means small, poorly fitted or top-dose-only effect; inactive means flat fitted curve, though single readings scatter; cell line not stated here. Many of the other results were omitted from the sample, so actives are more common in it than they were.
Lab note: assign the record to one of T = active, F = inactive

These solved cases illustrate the format of a correct answer.
Compound | Label
C=COC(=O)N1CCN(/[N+]([O-])=N/Oc2ccc([N+](=O)[O-])cc2[N+](=O)[O-])CC1 | F
O=C(CN1Cc2ccccc2OC(c2ccccc2)C1)N1CCCCC1c1cccnc1 (centres undefined) | F
CC(/C=C/c1ccco1)=N/NC(=O)C1COc2ccccc2O1 (centres undefined) | F
Cc1cc(C)cc(CN2CCc3nnc(C(NS(C)(=O)=O)C(C)C)n3CC2)c1 (centres undefined) | F
Oc1c(Cl)cc(Cl)c(Cl)c1Cc1c(O)c(Cl)cc(Cl)c1Cl | T
Cc1cc(C2=NNC(=Nc3ccc(S(=O)(=O)N4CCOCC4)cc3)SC2)c(C)n1CC1CCCO1 (centres undefined) | T
CCN(CC)c1ccc(/C=C/c2c(C)cnc3ccc(C)cc23)cc1 | F
O=C(NCCCNc1ccc([N+](=O)[O-])cc1Cl)c1ccccc1F | F

query: // return assay outcome for O=C(NCc1cc(C(F)(F)F)cc(C(F)(F)F)c1)C1CC(c2cccc(F)c2)=NO1 (centres undefined)
result: F

query: // return assay outcome for C=C1C=C(C)n2ncc(C(=O)Nc3ccccc3O)c2N1
result: F

query: // return assay outcome for COC(=O)c1sc(NC(=O)c2csc3c2CCCC3)nc1C
result: T

query: // return assay outcome for C/C=C/NNC(=O)Cc1ccc(OC)cc1
result: F

query: // return assay outcome for O=[N+]([O-])c1ccc(NS(=O)(=O)c2ccccc2)c(Cl)c1
result: T

query: // return assay outcome for COc1ccc(OC)c2sc(N3CCN(C(=O)C4COc5ccccc5O4)CC3)nc12 (centres undefined)
result: F
